Examples of compounds with documented IC50 follow.
Target: Toll-like receptor 1/2 (Mus musculus, UniProt Q9EPQ1+Q9QUN7)
Sequence (Q9QUN7 whole entry): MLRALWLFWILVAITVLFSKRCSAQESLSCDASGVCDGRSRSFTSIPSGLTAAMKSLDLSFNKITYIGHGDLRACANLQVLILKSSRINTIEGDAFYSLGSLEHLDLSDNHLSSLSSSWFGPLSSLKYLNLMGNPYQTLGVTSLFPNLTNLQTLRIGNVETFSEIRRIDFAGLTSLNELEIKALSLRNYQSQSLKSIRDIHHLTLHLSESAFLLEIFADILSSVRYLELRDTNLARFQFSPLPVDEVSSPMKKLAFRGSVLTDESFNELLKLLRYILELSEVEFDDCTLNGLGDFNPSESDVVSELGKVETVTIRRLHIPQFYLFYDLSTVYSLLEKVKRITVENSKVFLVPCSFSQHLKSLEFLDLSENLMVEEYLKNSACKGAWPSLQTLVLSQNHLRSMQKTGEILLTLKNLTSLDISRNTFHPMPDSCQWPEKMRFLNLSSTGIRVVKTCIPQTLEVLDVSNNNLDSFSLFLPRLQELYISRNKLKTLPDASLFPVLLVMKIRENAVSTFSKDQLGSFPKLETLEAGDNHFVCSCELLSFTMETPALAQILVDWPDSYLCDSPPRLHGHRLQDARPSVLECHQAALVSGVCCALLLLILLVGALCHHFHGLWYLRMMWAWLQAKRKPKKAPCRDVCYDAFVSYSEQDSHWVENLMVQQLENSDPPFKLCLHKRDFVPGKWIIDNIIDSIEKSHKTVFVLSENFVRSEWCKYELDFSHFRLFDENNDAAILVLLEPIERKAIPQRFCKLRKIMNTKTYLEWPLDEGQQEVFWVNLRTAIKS
Sequence (Q9EPQ1 whole entry): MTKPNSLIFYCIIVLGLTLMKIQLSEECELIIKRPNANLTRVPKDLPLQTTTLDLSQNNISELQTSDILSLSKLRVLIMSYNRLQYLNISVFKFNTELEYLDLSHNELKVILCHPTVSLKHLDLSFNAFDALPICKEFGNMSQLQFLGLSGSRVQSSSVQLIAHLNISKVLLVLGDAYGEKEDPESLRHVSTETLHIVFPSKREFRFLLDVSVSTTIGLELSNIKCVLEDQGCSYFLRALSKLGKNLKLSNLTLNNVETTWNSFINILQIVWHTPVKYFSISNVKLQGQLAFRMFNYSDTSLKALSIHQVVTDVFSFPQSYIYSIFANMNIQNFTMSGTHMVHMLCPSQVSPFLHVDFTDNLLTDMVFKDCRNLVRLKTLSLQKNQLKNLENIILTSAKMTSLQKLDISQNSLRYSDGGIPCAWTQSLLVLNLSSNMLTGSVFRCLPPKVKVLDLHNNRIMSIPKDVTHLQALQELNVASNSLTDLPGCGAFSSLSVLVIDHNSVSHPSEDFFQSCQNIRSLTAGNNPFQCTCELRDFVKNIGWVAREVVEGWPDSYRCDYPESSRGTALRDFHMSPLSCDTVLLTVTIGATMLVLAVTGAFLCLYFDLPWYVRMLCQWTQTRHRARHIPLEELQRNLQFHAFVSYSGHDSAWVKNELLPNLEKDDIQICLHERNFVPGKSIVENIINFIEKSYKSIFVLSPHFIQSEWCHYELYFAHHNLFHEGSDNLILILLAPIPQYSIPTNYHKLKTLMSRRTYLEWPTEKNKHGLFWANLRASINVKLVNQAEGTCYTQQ
Experiment: Antagonist activity at TLR1/2 in mouse RAW264.7 cells assessed as inhibition of Pam3CSK4-induced receptor activation by measuring NO production after 24 hrs
Property Measured: IC50 (nM)

[[record]]
chemical_smiles = "COc1cc2cc(C(=O)OC(C)C)cc(O)c(=O)c2c(O)c1O"
property_measured = "IC50"
readout_unit = "nM"
meas_value = 2470

[[record]]
chemical_smiles = "COc1cc2cccc(OC)c(=O)c2c(O)c1OC"
property_measured = "IC50"
readout_unit = "nM"
meas_value = 11700

[[record]]
chemical_smiles = "O=c1c(O)cccc2ccc(O)c(O)c12"
property_measured = "IC50"
readout_unit = "nM"
meas_value = 2250


---

Target: Toll-like receptor 1/2 (Mus musculus) (UniProt Q9QUN7+Q9EPQ1)
Assay: Antagonist activity at TLR1/2 in mouse RAW264.7 cells assessed as inhibition of Pam3CSK4-induced receptor activation by measuring NO production at 3 uM after 24 hrs
Assay type: cell-based
Examples of molecules with documented inhibition follow.
Property Measured: inhibition

[[record]]
molecule = "COc1cccc(NC(S)=Nc2ccc(O)cc2)c1"
property_measured = "inhibition"
meas_value = "> 70%"

[[record]]
molecule = "O=C(/C=C/c1ccc(O)c(O)c1)c1ccccc1O"
property_measured = "inhibition"
meas_value = "> 70%"

[[record]]
molecule = "CC(=O)/C=C/Nc1ccccc1O"
property_measured = "inhibition"
meas_value = "> 70%"

[[record]]
molecule = "O=C(Nc1ccc(Cl)c(Cl)c1)Nc1ccccc1O"
property_measured = "inhibition"
meas_value = "> 70%"

[[record]]
molecule = "C=C(C)[C@H]1Cc2c(ccc3c2O[C@@H]2COc4cc(OC)c(OC)cc4[C@@H]2C3=O)O1 [ROTENONE]"
property_measured = "inhibition"
meas_value = "> 70%"

[[record]]
molecule = "O=c1c(O)cccc2cc(O)c(O)c(O)c12 [PURPUROGALLIN]"
property_measured = "inhibition"
meas_value = "> 70%"

[[record]]
molecule = "CN1CCN(C(=O)/C=C/c2ccc([N+](=O)[O-])o2)CC1"
property_measured = "inhibition"
meas_value = "> 70%"

[[record]]
molecule = "O=[N+]([O-])c1cc(Cl)cc2c1nc(NCCO)c1ccccc12"
property_measured = "inhibition"
meas_value = "> 70%"

[[record]]
molecule = "CCCCCCOC(=O)c1cc(O)c(=O)c2c(O)c(O)c(OC)cc2c1"
property_measured = "inhibition"
meas_value = "> 70%"

[[record]]
molecule = "Oc1ccc(/N=C/c2c(O)ccc3ccccc23)cc1"
property_measured = "inhibition"
meas_value = "> 70%"


---

Target: Toll-like receptor 1/2 (Mus musculus, UniProt Q9EPQ1+Q9QUN7)
Assay: Antagonist activity at TLR1/2 in mouse RAW264.7 cells assessed as inhibition of Pam3CSK4-induced receptor activation by measuring NO production after 24 hrs
Rule for this label: T means IC50 is less than 1000 nM; F means IC50 is at least 1000 nM.

[[record]]
compound = "CC(=O)Oc1cc2c(c(OC(C)=O)c1OC(C)=O)C(=O)C1(OC(C)=O)C=CC2C2C(=O)OC(=O)C21 (stereo not given)"
class_assignment = "F"

[[record]]
compound = "CCOC(=O)c1cc(O)c(=O)c2c(O)c(O)c(OC)cc2c1"
class_assignment = "F"

[[record]]
compound = "CCCCCCCCOC(=O)c1cc(O)c(=O)c2c(O)c(O)c(OC)cc2c1"
class_assignment = "T"

[[record]]
compound = "COC(=O)c1cc(O)c(=O)c2c(O)c(O)ccc2c1"
class_assignment = "F"

